- Tested on: isolated mouse liver mitochondria
- experimental details: Loss of mitochondrial transmembrane potential
- Format: biochemical
- condition label: 20% of maximal loss of ΔΨm (50µM mClCCP = 100%), 30-min incubation
Kindly return y if reported ΔΨm loss EC20 is no lower than 200 µM; return n if it is lower.

Take a look at these entries with their results.
Challenge: Tell me whether ΔΨm loss EC20 is at least 200 µM here: CC(C)c1c(C(=O)Nc2ccccc2)c(-c2ccccc2)c(-c2ccc(F)cc2)n1CC[C@@H](O)C[C@@H](O)CC(=O)O
Response given: n

Challenge: I'd appreciate it if you could say whether CN1C(C(=O)Nc2ccccn2)=C(O)c2ccccc2S1(=O)=O has ΔΨm loss EC20 at least equal to 200 µM.
Response given: n

Challenge: Confirm if ΔΨm loss EC20 reported for the compound CS(=O)(=O)OCCCCOS(C)(=O)=O is 200 µM or above.
Response given: y

New cases:
Challenge: Quick check, ΔΨm loss EC20 >= 200 µM? O=C1CN(/N=C/c2ccc([N+](=O)[O-])o2)C(=O)N1
Response given: y

Challenge: Hello, I need to know if CC1(C)S[C@@H]2[C@H](NC(=O)[C@H](N)c3ccc(O)cc3)C(=O)N2[C@H]1C(=O)O has measured ΔΨm loss EC20 not below 200 µM. Thanks!
Response given: y

Challenge: Item CC(=O)Oc1ccc(C(c2ccc(OC(C)=O)cc2)c2ccccn2)cc1 with ΔΨm loss EC20 of 200 µM or above?
Response given: y

Challenge: Please indicate if the recorded ΔΨm loss EC20 for CN[C@@H]1[C@H](O)[C@H](NC)[C@H]2O[C@@]3(O)C(=O)C[C@@H](C)O[C@H]3O[C@@H]2[C@H]1O meets or exceeds 200 µM.
Response given: y

Where do the numbers come from? From paper PMC3446843.
